Molecular target: UniProtKB O60674
Sequence (O60674 849-1124 limits assumed, species assumed): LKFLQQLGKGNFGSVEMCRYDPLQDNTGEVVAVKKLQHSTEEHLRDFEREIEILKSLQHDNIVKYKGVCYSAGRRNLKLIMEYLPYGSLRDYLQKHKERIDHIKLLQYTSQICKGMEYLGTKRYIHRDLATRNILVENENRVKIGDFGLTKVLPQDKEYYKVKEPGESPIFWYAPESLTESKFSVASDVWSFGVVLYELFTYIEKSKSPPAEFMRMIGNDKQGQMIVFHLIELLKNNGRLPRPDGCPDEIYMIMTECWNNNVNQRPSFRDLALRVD
endpointLabel: IC50

For every item below, please supply its IC50.
1. COc1ccccc1OCC(O)CNc1cc[nH]c(=O)c1-c1nc2cc3c(cc2[nH]1)C(=O)N(C1CCN(C)CC1)C3=O (stereo not drawn)
2. CN1CCCC1CCN1C(=O)c2cc3nc(-c4c(NC[C@@H](O)c5cccc(Cl)c5)cc[nH]c4=O)[nH]c3cc2C1=O (stereo partly drawn)
3. Cc1ccc(OC[C@H](O)CNc2ccnc(O)c2-c2nc3cc4c(cc3[nH]2)C(=O)N(C2CCN(C)CC2)C4=O)cn1
4. Cc1ncccc1OC[C@H](O)CNc1ccnc(O)c1-c1nc2cc3c(cc2[nH]1)C(=O)N(C1CCN(C)CC1)C3=O

## Output
1. 5 to 15 µM
2. 0.5 to 5 µM
3. 0.5 to 5 µM
4. 5 to 15 µM

Value sought for every listed compound: IC50.
1. COc1cc(C#N)ccc1OC[C@H](O)CNc1ccnc(O)c1-c1nc2cc3c(cc2[nH]1)C(=O)N(C1CCN(C)CC1)C3=O
2. CN1CCC(N2C(=O)c3cc4nc(-c5c(NC[C@H](O)COc6ccc(F)cc6)cc[nH]c5=O)[nH]c4cc3C2=O)CC1

## Output
["0.5 to 5 µM", "0.5 to 5 µM"]
